# testProtocol: Acute toxicity in ip dosed albino mouse assessed as mortality measured for 5 days
# Format: organism-based
# conditionLabel: in vivo
Could you please report measured LD50 at 120 h for the items listed next?
A number alone suffices; assume mg/kg.

[in] LD50 at 120 h lookup needed for CCn1c2c(c3ccccc31)CCCCC2(C)CCN(C)C.Cl (stereo not drawn) , thanks.
[out] 85

[in] Name the recorded LD50 at 120 h for CCn1c2c(c3ccccc31)CCCC2(C)CCNC.Cl (stereo not drawn) .
[out] 125

[in] What does the data say about its LD50 at 120 h? Entry: CN(C)CCC1(C)CCCc2c1n(C)c1ccccc21.Cl (stereo not drawn)
[out] 125

[in] What value of LD50 at 120 h has been reported for the following compound? CCn1c2c(c3ccccc31)CCCC2(C)CCN(C)C.Cl (stereo not drawn)
[out] 125

[in] I would be grateful if you could share the reported LD50 at 120 h for Br.CCn1c2c(c3ccccc31)CCCC2(CC)CCN(C)C (stereo not drawn) .
[out] 175

[in] Value lookup for LD50 at 120 h; key = CN(C)CCC1CCCc2c1n(C)c1ccccc21.Cl (stereo not drawn)
[out] 125

[in] What does the record list as LD50 at 120 h for CN(C)CCC=C1c2ccccc2CCc2ccccc21 [AMITRIPTYLINE] ?
[out] 94

[in] Requested field: LD50 at 120 h. Item: CCCn1c2c(c3ccccc31)CCCC2(C)CCN(C)C.Cl (stereo not drawn)
[out] 125
